# target or system: dopamine transporter (DAT) (Rattus norvegicus, UniProt P23977)
# Sequence (P23977 whole entry): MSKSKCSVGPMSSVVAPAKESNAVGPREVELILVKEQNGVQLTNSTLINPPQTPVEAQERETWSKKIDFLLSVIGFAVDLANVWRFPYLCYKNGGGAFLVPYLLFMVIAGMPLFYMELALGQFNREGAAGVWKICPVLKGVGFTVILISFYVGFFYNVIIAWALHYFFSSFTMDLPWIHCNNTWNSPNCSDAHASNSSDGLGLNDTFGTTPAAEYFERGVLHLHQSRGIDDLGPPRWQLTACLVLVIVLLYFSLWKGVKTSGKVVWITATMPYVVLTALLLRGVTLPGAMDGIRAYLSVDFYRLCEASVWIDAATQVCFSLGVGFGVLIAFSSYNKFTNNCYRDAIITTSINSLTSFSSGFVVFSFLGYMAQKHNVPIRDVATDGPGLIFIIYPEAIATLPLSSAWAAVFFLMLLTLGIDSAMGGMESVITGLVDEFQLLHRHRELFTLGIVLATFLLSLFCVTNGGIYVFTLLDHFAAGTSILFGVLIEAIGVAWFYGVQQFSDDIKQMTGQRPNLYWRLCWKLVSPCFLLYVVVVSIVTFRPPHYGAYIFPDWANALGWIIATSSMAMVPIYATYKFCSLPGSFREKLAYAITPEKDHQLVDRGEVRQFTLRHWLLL
# test summary: Dopamine reuptake ([^3H]dopamine uptake) inhibition in rat brain synaptosomes
# experimental setup: read-out: DAT Uptake Emax
measurement kind: Emax (%)
Numbers only; they are read as %.

Find the measured Emax of c1ccc(C(CNc2nc(-c3ccc4nccn4c3)nc3ccccc23)c2ccc[nH]2)cc1 (centres unmarked) [compound 117] and report it. 64

Find the measured Emax of c1ccc(C(CNc2nc(-c3ccc4nccn4c3)nc3ccccc23)C2CCCCC2)cc1 (centres unmarked) [compound 100] and report it. 72

Find the measured Emax of Cn1cc2cc(-c3nc(NCC(c4ccccc4)c4ccccc4)c4ccccc4n3)ccc2n1 [compound 66] and report it. 69

Find the measured Emax of c1ccc(C(CNc2nc(-c3ccc4nccn4c3)nc3ccccc23)c2cccnc2)cc1 (centres unmarked) [compound 131] and report it. 70

Find the measured Emax of OC(CNc1nc(-c2cnc3nccn3c2)nc2ccccc12)(c1ccccc1)c1ccccc1 [compound 99] and report it. 65

Find the measured Emax of Cc1cc2nccn2cc1-c1nc(NCC(c2ccccc2)c2ccccc2)c2ccccc2n1 [compound 118] and report it. 63

Find the measured Emax of Cc1cc2nccn2cc1-c1nc(NCC(O)(c2ccccc2)c2ccccc2)c2ccccc2n1 [compound 152] and report it. 69

Find the measured Emax of Cc1cc2nccn2cc1-c1nc(NCC(c2ccccc2)c2ccc[nH]2)c2ccccc2n1 (centres unmarked) [compound 140] and report it. 69

The measured values listed here are drawn from patent US9873702B2.
